# normalized RNA/DNA level without ligand (log10) per entry
B1: library; a variant is named by its letters at N, in order (parent)
chain: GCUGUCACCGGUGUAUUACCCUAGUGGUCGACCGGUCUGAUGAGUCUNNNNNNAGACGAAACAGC

- Variants of: B1
- Procedure summary: normalized RNA/DNA level without ligand (relative to sTRSVctl = 100) (log10 (% of sTRSVctl)); ligand: hypoxanthine (xanthine aptamer); higher = less ribozyme self-cleavage, higher mRNA level
- Test conditions: HEK293T, reporter: mCherry (pCS4076), ligand present: no
Simply state the number, no unit and no words.

Example entries begin here.
>>> observed("CGCUUA")
1.7
>>> observed("CAGGCG")
1.84

Task: Any idea what normalized RNA/DNA level without ligand (log10) was measured for `AAUUAC` ?
Output: 1.82

Task: Any idea what normalized RNA/DNA level without ligand (log10) was measured for `AUACAU` ?
Output: 1.79

Task: Any idea what normalized RNA/DNA level without ligand (log10) was measured for `CGGCAA` ?
Output: 1.53

Task: Any idea what normalized RNA/DNA level without ligand (log10) was measured for `UGUUUG` ?
Output: 1.93

Task: Any idea what normalized RNA/DNA level without ligand (log10) was measured for `AAAACU` ?
Output: 1.86

Task: Any idea what normalized RNA/DNA level without ligand (log10) was measured for `AAGACG` ?
Output: 1.17

Task: Any idea what normalized RNA/DNA level without ligand (log10) was measured for `CGGAGU` ?
Output: 1.78
